experiment: Extraction ratio in human liver microsomes at 10 uM in presence of NADPH by LC-MS/MS analysis; type: ADME, microsome; conditions: read-out: ERH
Reported hepatic extraction ratio at 10 µM values for the following molecules.
Write the value as a bare number.

Some solved cases for reference:
Cc1ccccc1S(=O)(=O)N1CC2(CN(c3ccc(C(=O)NCc4ccc(F)cc4)nn3)C2)C1: 0.97
Cc1ccccc1S(=O)(=O)N1CCN(c2ccc(C(=O)NCc3cccs3)nn2)CC1: 0.92

Continue with the molecule presented below.
Look up hepatic extraction ratio at 10 µM of "Cc1ccccc1S(=O)(=O)N1CCN(c2ccc(C(=O)NCc3cncs3)nn2)CC1" and report it.
0.59

###

experiment: Half life in human liver microsomes at 10 uM in presence of NADPH by LC-MS/MS analysis; type: ADME, microsome; details: liver microsomes
measurement.label: half-life at 10 µM

Here's what some known entries look like.
O=C(NCc1ccccc1)c1ccc(N2CCN(S(=O)(=O)c3ccccc3Cl)CC2)nn1: 5 min
Cc1ccccc1S(=O)(=O)N1CC=C(c2ccc(C(=O)NCc3ccc(F)cc3)nn2)CC1: 2 min

Please turn your attention to the following entry.
Please give measured half-life at 10 µM of the following entry: "Cc1ccc(F)cc1S(=O)(=O)N1CCN(c2ccc(C(=O)NCc3ccc(F)cc3)nn2)CC1"
12 min
